STUDY_TARGET: T1, amyloid‐β40 (Aβ40)
T1 construct: Amyloid-beta 40, cut from amyloid precursor protein (APP) by beta- and gamma-secretases; numbers count on: the Aβ peptide (Asp1 to Val40); Unlabelled peptide; Metal-treated samples (CuCl2, ZnCl2) are told apart by the assay; also called metal-free Aβ40; Cu(II)–Aβ40 and Zn(II)–Aβ40 when treated with CuCl2 or ZnCl2; source: bought: Peptide Institute (HPLC-purified) or Anaspec
T1 sequence (peptide, as listed by the source): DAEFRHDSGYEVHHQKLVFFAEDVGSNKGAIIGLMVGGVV
PROTOCOL_DESCRIPTION: ITC; APP-C31 600 µM in the syringe, Aβ40 30 µM in the cell; 20 mM HEPES, pH 7.4; 10 °C; one set of sites model
RECORDED_CONDITIONS: both partners purified
pKd: −log10 of the molar value.
QUANTITY_MEASURED: pKd

[
  {
    "BINDER": "AAVTPEERHLSKMQQNGYENPTYKFFEQMQN (C-terminal 31 residues of amyloid precursor protein (APP), produced by caspase cleavage; residues 665-695; source: bought: AnaSpec) [APP‐C31 (APP_(665–695))]",
    "DATA_VALUE": 3.82
  }
]
